Where do these numbers come from? They come from paper PMC5607274.

Recorded First screening IR (inhibition rate), one value per entry.
biological target: human recombinant Yes [a.a. 2–543 (end)] (Homo sapiens); construct: human recombinant Yes [a.a; 2–543 (end)]; purchased BPS Bioscience 40488; assay: ADP-Glo kinase assay, inhibition rates of Yes phosphorylation activity (first and second screening); format: biochemical; conditions: first screening; mean of n = 4 wells; 10 μmol L−1 compound
# output: bare number, implied unit %

Completed entries (count: 7):
O=C(O)c1ccc(/C=C2/CCCc3c2nc2ccccc2c3C(=O)O)cc1 = 1
O=C(Nc1nc2cc(C(F)(F)F)ccc2n1Cc1ccco1)c1ccc2n[nH]nc2c1 = 0
Cc1ccc(-c2cc(C(=O)OCc3nc(C(C)(C)C)no3)n[nH]2)s1 = 12
Cl.Fc1cccc(F)c1-c1cc(-c2ccccc2)c2ccccc2n1 = 4
O=C(CCc1cnn(-c2ccccc2)c1)Nc1nc2c(s1)CCCC2 = -5
Cc1ccnc(NC(=O)c2cc(-c3ccc(F)cc3)nc3onc(C)c23)c1 = -14
CS(=O)(=O)N(C(=O)c1ccc(OC(F)(F)F)cc1)C1CCC(O)CC1 (centres unmarked) = 2

--- query ---
Exam item: Fill in: First screening IR (inhibition rate) of `Cc1cc(C(=O)Nc2ccc(N3CCNC(=O)C3)c(Cl)c2)c2ccccc2n1` is ___
Marked response: 7

====

biological target: human recombinant Yes [a.a. 2–543 (end)] (Homo sapiens, UniProt P07947); construct: human recombinant Yes [a.a; 2–543 (end)]; purchased BPS Bioscience 40488; test: ADP-Glo kinase assay, inhibition rates of Yes phosphorylation activity (first and second screening); assay type: biochemical; conditions: first screening; mean of n = 4 wells; 10 μmol L−1 compound
Sequence (P07947 2-543): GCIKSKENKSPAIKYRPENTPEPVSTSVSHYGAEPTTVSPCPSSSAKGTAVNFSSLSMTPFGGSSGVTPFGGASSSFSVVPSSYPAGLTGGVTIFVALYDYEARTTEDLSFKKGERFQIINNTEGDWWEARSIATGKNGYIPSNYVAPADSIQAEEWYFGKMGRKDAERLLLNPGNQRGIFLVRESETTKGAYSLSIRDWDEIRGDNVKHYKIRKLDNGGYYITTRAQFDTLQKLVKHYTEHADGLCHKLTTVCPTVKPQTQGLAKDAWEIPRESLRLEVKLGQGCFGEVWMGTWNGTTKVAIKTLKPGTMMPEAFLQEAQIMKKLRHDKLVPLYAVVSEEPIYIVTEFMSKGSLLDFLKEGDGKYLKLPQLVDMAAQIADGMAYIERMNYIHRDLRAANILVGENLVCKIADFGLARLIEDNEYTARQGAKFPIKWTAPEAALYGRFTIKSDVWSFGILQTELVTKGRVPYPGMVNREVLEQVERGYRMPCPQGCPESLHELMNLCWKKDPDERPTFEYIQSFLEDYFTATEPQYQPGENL
Outcome Measure: First screening IR (inhibition rate) (%)
# output: bare number, implied unit %

Cc1cc(SCC(=O)NC(=O)NC2CCCC2)nc2ccccc12 [Compound Z20243594] = 8
O=C(Cc1cn2ccsc2n1)NCCN1C(=O)S/C(=C/c2cccnc2)C1=O [Compound Z27116942] = 12
Cc1cc(CN(C)C(=O)NCc2ccc(N3CCCC3=O)cc2)no1 [Compound Z485637938] = -16
CC(=O)c1cccc(NC(=O)c2sc(Nc3ccc(C)cc3)c(C(=O)NCCN3CCOCC3)c2N)c1 [Compound Z56914008] = -3
CC(C)CN(C1CCS(=O)(=O)C1)S(C)(=O)=O (centres unmarked) [Compound Z133987698] = 12

Exam item: Fill in: First screening IR (inhibition rate) of Cc1c(N=C2SC(CC(=O)Nc3ccc(F)cc3)C(=O)N2CC2CCCCC2)c(=O)n(-c2ccccc2)n1C (centres unmarked) [Compound Z56900652] is ___
Marked response: 8

Exam item: Fill in: First screening IR (inhibition rate) of CN(C)S(=O)(=O)c1cccc(S(=O)(=O)c2cccc(S(=O)(=O)N(C)C)c2)c1 [Compound Z56877233] is ___
Marked response: 7

Exam item: Fill in: First screening IR (inhibition rate) of Cc1cccc(C(C)C)c1NC(=O)CSc1nc2ccc(Cl)cc2c(=O)n1CC(C)C [Compound Z16658902] is ___
Marked response: -5

====

target: human recombinant Yes [a.a. 2–543 (end)] (Homo sapiens, UniProt P07947); construct: human recombinant Yes [a.a; 2–543 (end)]; purchased BPS Bioscience 40488; experiment: ADP-Glo kinase assay, inhibition rates of Yes phosphorylation activity (first and second screening); format: biochemical; details: first screening; mean of n = 4 wells; 10 μmol L−1 compound
Recorded First screening IR (inhibition rate), one value per entry.
# output: bare number, implied unit %

Completed entries (count: 3):
Cc1cccc(C)c1OCc1nc2c3c(-c4ccccc4)c(-c4ccccc4)oc3ncn2n1 = 20
Cc1cc(C)n(-c2cncc(NC(C)c3nnc4ccccn34)n2)n1 (stereo not shown) = 5
CCN1C/C(=C/c2ccc(F)cc2)c2nc3ccccc3c(C(=O)O)c2C1 = 5

Exam item: Fill in: First screening IR (inhibition rate) of `Cc1sc2nc(CN3CCC(C)CC3)nc(N3CCCN(C(=O)Cc4ccccn4)CC3)c2c1C` is ___
Marked response: 0
